Tested on: Streptococcus pneumoniae
Assay: Antimicrobial activity against multidrug resistant Streptococcus pneumoniae ATCC 700677 by microdilution plate based method
Type: functional
metric-name: MIC (µg/mL)
One number for each entry, in µg/mL.

Sample answers from the record:
CC(C)=CCC/C(C)=C\COC(=O)/C=C/c1ccc(O)cc1
64
CN[C@H](CC(C)C)C(=O)N[C@H]1C(=O)N[C@@H](CC(N)=O)C(=O)N[C@H]2C(=O)N[C@H]3C(=O)N[C@H](C(=O)N[C@H](C(=O)O)c4cc(O)cc(O)c4-c4cc3ccc4O)[C@H](O)c3ccc(c(Cl)c3)Oc3cc2cc(c3O[C@@H]2O[C@H](CO)[C@@H](O)[C@H](O)[C@H]2O[C@H]2C[C@](C)(N)[C@H](O)[C@H](C)O2)Oc2ccc(cc2Cl)[C@H]1O.Cl [VANCOMYCIN HYDROCHLORIDE]
2

Prompt: So what's the measured MIC for this one? CCCCCCCCCC(=O)N[C@@H](Cc1c[nH]c2ccccc12)C(=O)N[C@@H](CC(N)=O)C(=O)N[C@@H](CC(=O)O)C(=O)N[C@@H]1C(=O)NCC(=O)N[C@@H](CCCN)C(=O)N[C@@H](CC(=O)O)C(=O)N[C@H](C)C(=O)N[C@@H](CC(=O)O)C(=O)NCC(=O)N[C@H](CO)C(=O)N[C@@H]([C@H](C)CC(=O)O)C(=O)N[C@@H](CC(=O)c2ccccc2N)C(=O)O[C@@H]1C [DAPTOMYCIN]
Response: 8
